- Tested on: human APOE RNA
- Experiment notes: Activity in APOE C57BL/6NTac-Apoeem7250 knock-in mice, single ICV bolus, 16 weeks (Example 12)
- Format: in vivo
- Measurement conditions: spinal cord; single ICV bolus 300 μg; 16 weeks post treatment; normalized to mouse Ppia
Strand notation (5' to 3'): a small letter for the sugar, then the base; units joined by * are phosphorothioate-linked, units joined directly phosphodiester-linked; [ ] holds rarer units or linkages, { } end groups; capitals alone tell only the bases. [ms] = mesyl phosphoramidate linkage; e = 2'-O-(2-methoxyethyl) (MOE); k = constrained ethyl (cEt); [5mC] = 5-methylcytosine; d = 2'-deoxy (DNA)
Experimental readout: APOE RNA (% control) Spinal Cord

1681006: 5-10-5 MOE gapmer GGTGAATCTTTATTAAACTA, linkages ssssszsssszzszzssss (antisense eG*eG*eT*eG*eA*dA[ms]dT*d[5mC]*dT*dT*dT[ms]dA[ms]dT*dT[ms]dA[ms]eA*eA*e[5mC]*eT*eA) [compound 1681006]
80
1693081: 6-10-4 MOE gapmer TTGGTGAATCTTTATTAAAC, linkages sssssozzszssszssoss (eT*eT*eG*eG*eT*eGdA[ms]dA[ms]dT*d[5mC][ms]dT*dT*dT*dA[ms]dT*dT*eAeA*eA*e[5mC]) [compound 1693081]
100
1778126 (eA*e[5mC]eTeTkG*kG*dT*dG[ms]dA[ms]dA*dT*d[5mC]*dT*dT*dT*dA[ms]kT*eT*eA*eA; antisense) [Compound 1778126]
22
1693058: 5-10-5 MOE gapmer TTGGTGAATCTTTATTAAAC, linkages sssoszzzssssszsosss (antisense eT*eT*eG*eGeT*dG[ms]dA[ms]dA[ms]dT*d[5mC]*dT*dT*dT*dA[ms]dT*eTeA*eA*eA*e[5mC]) [compound 1693058]
80
1757575 (eA*e[5mC]eTeT*kG*kG*dT*dG[ms]dA[ms]dA[ms]dT*d[5mC]*dT*dT*dT*dA[ms]kT*eT*eA*eA; antisense) [Compound 1757575]
21
1693064: 5-10-5 MOE gapmer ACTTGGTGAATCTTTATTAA, linkages soossssszzsssssosss (antisense eA*e[5mC]eTeT*eG*dG*dT*dG*dA[ms]dA[ms]dT*d[5mC]*dT*dT*dT*eAeT*eT*eA*eA) [compound 1693064]
48
1736536 (e[5mC]*eT*eT*eG*kGkT*dG[ms]dA[ms]dA[ms]dT*d[5mC]*dT*dT*dT*dA[ms]dT*eT*eA*eA*eA; antisense) [Compound 1736536]
31
1785619 (k[5mC]*dT[ms]dT[ms]kG*dG[ms]kT*dG*dA[ms]dA[ms]dT*d[5mC]*dT*dT*dT*dA[ms]dT*kT*kA*dA[ms]kA) [Compound 1785619]
41
1693053: 5-10-5 MOE gapmer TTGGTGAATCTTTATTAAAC, linkages ssssszzzsssssssosss (antisense eT*eT*eG*eG*eT*dG[ms]dA[ms]dA[ms]dT*d[5mC]*dT*dT*dT*dA*dT*eTeA*eA*eA*e[5mC]) [compound 1693053]
99

---

- Test system: human APOE RNA
- Experiment notes: Activity in APOE C57BL/6NTac-Apoeem7250 knock-in mice, single ICV bolus, 8 weeks (Example 11)
- Assay type: in vivo
- Measurement conditions: cortex; single ICV bolus 300 μg; 8 weeks post treatment; normalized to mouse Ppia
Strand notation (5' to 3'): a small letter for the sugar, then the base; units joined by * are phosphorothioate-linked, units joined directly phosphodiester-linked; [ ] holds rarer units or linkages, { } end groups; capitals alone tell only the bases. [ms] = mesyl phosphoramidate linkage; e = 2'-O-(2-methoxyethyl) (MOE); k = constrained ethyl (cEt); [5mC] = 5-methylcytosine; d = 2'-deoxy (DNA)
Experimental readout: APOE RNA (% control) Cortex

1693043: 5-10-5 MOE gapmer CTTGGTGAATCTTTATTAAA, linkages sssoszzzzssssssosss (antisense e[5mC]*eT*eT*eGeG*dT[ms]dG[ms]dA[ms]dA[ms]dT*d[5mC]*dT*dT*dT*dA*eTeT*eA*eA*eA) [compound 1693043]
89
1778125: modified oligonucleotide complementary to human APOE RNA (eA*e[5mC]eTeTeGeG*dT*dG[ms]dA[ms]dA*dT*d[5mC]*dT*dT*dT*dA[ms]kTkT*eA*eA; antisense) [compound 1778125]
59
1785617: modified oligonucleotide complementary to human APOE RNA (k[5mC]*dT[ms]dT[ms]kG*dG[ms]kT*dG[ms]dA[ms]dA[ms]dT[ms]d[5mC]*dT*dT*dT*dA*dT*kT*kA*dA[ms]kA; antisense) [compound 1785617]
30
1681007: 5-10-5 MOE gapmer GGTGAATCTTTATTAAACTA, linkages zsssszsssszzszssszz (antisense eG[ms]eG*eT*eG*eA*dA[ms]dT*d[5mC]*dT*dT*dT[ms]dA[ms]dT*dT[ms]dA*eA*eA*e[5mC][ms]eT[ms]eA) [compound 1681007]
71
